biological target: FGFR3 kinase (Homo sapiens)
Sequence (P22607 23-806): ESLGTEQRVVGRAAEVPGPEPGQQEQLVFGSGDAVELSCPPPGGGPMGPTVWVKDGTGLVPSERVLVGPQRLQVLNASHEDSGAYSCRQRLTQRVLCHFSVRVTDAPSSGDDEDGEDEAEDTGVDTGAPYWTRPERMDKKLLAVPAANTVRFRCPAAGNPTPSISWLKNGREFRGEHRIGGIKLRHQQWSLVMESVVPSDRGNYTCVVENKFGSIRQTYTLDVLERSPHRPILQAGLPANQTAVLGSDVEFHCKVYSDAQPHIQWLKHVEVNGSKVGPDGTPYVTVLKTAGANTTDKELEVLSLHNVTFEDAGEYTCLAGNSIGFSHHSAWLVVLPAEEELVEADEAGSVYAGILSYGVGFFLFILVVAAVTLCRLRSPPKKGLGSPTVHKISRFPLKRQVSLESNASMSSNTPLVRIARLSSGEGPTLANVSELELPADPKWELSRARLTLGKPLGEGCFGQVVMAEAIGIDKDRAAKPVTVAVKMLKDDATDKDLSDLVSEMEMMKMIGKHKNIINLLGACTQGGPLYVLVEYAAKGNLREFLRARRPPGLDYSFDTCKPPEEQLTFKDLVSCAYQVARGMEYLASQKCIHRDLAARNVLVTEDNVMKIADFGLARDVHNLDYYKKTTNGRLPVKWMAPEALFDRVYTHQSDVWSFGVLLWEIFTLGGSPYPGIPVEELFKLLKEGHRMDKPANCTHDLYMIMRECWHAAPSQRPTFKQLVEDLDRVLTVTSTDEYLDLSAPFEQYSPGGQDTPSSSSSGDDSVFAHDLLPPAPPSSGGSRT
Observable: IC50 (nM)

CNC(=O)c1cc(CCc2cnc(Nc3cnn(C4CNC4)c3)nc2)c(F)c(OC)c1 [Compound 160]: 16
CCn1cc(Nc2ncc(OCc3cc(C(=O)NC)cc(OC)c3F)cn2)cn1 [Compound 181]: 9
CNC(=O)c1cc(CCc2cnc(Nc3cnn(-c4ccc(C)nc4)c3)nc2)c(Cl)c(OC)c1 [Compound 152]: 38
CCN1CCN(c2cc(Nc3ncc(CCc4cc(OC)cc(C(=O)NOC)c4)cn3)ccn2)CC1 [Compound 76]: 8
CCN1CCN(c2ccc(Nc3ncc(CCc4cc(C(=O)NC)cc(OC)c4F)cn3)cc2)CC1 [Compound 44]: 9
CCN(CC)CCCn1cc(Nc2ncc(CCc3cc(C(=O)NC)cc(OC)c3Cl)cn2)cn1 [Compound 88]: 9

A: CNC(=O)c1cc(CCc2cnc(Nc3ccc(N4C[C@@H](C)N[C@@H](C)C4)c(C)c3)nc2)c(Cl)c(OC)c1 [Compound 208]
B: CNC(=O)c1cc(CCc2cnc(Nc3cn[nH]c3)nc2)c(F)c(OC)c1 [Compound 102]
Exam item: Would you mind telling me which has the lower recorded IC50 between A and B ? Your answer should be the label attached to the chosen record.
Marked response: A
(A: 9 nM, B: 18 nM)

The measurements presented in this section are drawn from patent US20160052926A1.
